- test: chemical genetic growth profiling, strain panel (AID 1159580);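 also: tested at 20 µM; growth read once vehicle control cultures reached saturation at 30 °C; 1 = growth at the plate median or of vehicle wells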
- condition: S. cerevisiae deletion strains, growth OD, locus YBR009C, strain hhf1, stronger effect = lower value
The campaign covered roughly 5,500 compounds. About 2,000 (36%) were called active. Inconclusive results (about 18%) are left out. The list shows a part of the results.
With a cut-off of 1, any normalized growth strictly below it is called 1 (yes); any normalized growth meeting it or above is called 0 (no).

Find out if reported normalized growth for O=C(OOC(=O)c1ccccc1)c1ccccc1 is less than 1 1 (yes)

Request: CO[C@H]1CC(O[C@@H]2/C(C)=C/C[C@@H]3C[C@@H](C[C@]4(CC[C@H](C)[C@@H](C5CCCCC5)O4)O3)OC(=O)[C@@H]3C=C(C)/C(=N\O)[C@H]4OC/C(=C\C=C\[C@@H]2C)[C@]43O)O[C@@H](C)C1O (stereo partly drawn) 0 (no)

Request: CCC(C)[C@H]1O[C@]2(C=C[C@@H]1C)C[C@@H]1C[C@@H](C/C=C(\C)[C@@H](OC3C[C@H](OC)C(O[C@H]4C[C@H](OC)[C@@H](O)[C@H](C)O4)[C@H](C)O3)[C@@H](C)/C=C/C=C3\CO[C@@H]4[C@H](O)C(C)=C[C@@H](C(=O)O1)[C@]34O)O2 (stereo partly drawn) 1 (yes)

Request: NC(=O)NC(=O)Cc1ccccc1 0 (no)

Request: NCC(N)C(=O)c1ccccc1 (stereo not drawn) 0 (no)

Request: O=C(CC(=O)c1ccccc1)c1ccccc1 1 (yes)

###

- test: chemical genetic growth profiling, strain panel (AID 1159580);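 also: tested at 20 µM; growth read once vehicle control cultures reached saturation at 30 °C; 1 = growth at the plate median or of vehicle wells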
- condition: S. cerevisiae deletion strains, growth OD, locus YGR092W, strain DBF2
In all, about 5,500 compounds went through this assay and about 2,000 (36%) were called active. Not shown: some 18% with an inconclusive outcome. Rule as the data show it: active = normalized growth mostly below about 0.91 (no sharp cut-off); inconclusive = no clear call, values can overlap the other calls; inactive = mostly above about 0.92. The list shows a part of the results.
// allowed return values: active, inactive

Tell me the recorded outcome of this test for CC(C)(C)c1cc(C(=O)Nc2ccc3c(c2)OCO3)n(Cc2ccc(F)cc2)n1 . inactive

Request: O=C(CSC1=NNC(c2ccccn2)S1)Nc1ccccc1 (stereo unspecified) inactive

Request: CC(C)(C)c1cc(C(=O)NNc2cccc(Cl)c2)n(Cc2ccccc2)n1 inactive

Request: Cc1ccc(-n2cccc2)c(NS(=O)(=O)c2ccc(-c3ccno3)s2)c1 inactive

Request: COC(=O)C1=C(Nc2ccccc2NS(=O)(=O)c2ccc(C(F)(F)F)cc2Cl)CSC1 inactive

Request: O=S(=O)(Nc1ccccc1Oc1ccccc1)c1ccc(-c2ccno2)s1 inactive

Request: COC(=O)c1sccc1NS(=O)(=O)c1cc(Cl)cc(Cl)c1 inactive

Request: Cc1nn(-c2cccc(Cl)c2)c2oc(=O)cc(C(F)(F)F)c12 active

Request: O=C(NOC(=O)c1ccccc1)c1ccccc1 active

Request: C#CCSC1=NNC(c2ccccn2)S1 (stereo unspecified) active

Request: Clc1ccc(SCc2ccsc2-c2ncns2)cc1 inactive

###

- test: chemical genetic growth profiling, strain panel (AID 1159580);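 also: tested at 20 µM; growth read once vehicle control cultures reached saturation at 30 °C; 1 = growth at the plate median or of vehicle wells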
- condition: S. cerevisiae deletion strains, growth OD, locus YAL026C, strain drs2
In all, about 5,500 compounds went through this assay and about 2,000 (36%) were called active. Not shown: some 18% with an inconclusive outcome. No stated cut-off is given here; in the data, active means normalized growth mostly below about 0.91 (no sharp cut-off); inconclusive means no clear call, values can overlap the other calls; inactive means mostly above about 0.92. The list shows a part of the results.
// allowed return values: active, inactive

Tell me the recorded outcome of this test for Cc1cc(=O)oc2cc(O)cc(O)c12 . inactive

Request: CC(=O)O[C@H]1CC[C@@]2(C)C(=CC(=O)C3C4CCC(C(C)CCCC(C)C)[C@@]4(C)CCC32)C1 (some centres undefined) inactive

Request: CN1CCN(C(=O)OC2c3nccnc3C(=O)N2c2ccc(Cl)cn2)CC1 (centres undefined) inactive

Request: OC[C@H]1O[C@@H](O[C@H]2[C@H](O)[C@@H](O)[C@@H](O)O[C@@H]2CO)[C@H](O)[C@@H](O)[C@@H]1O inactive

Request: CC(C)CCCC(C)C1CCC2C3CC(=O)[C@H]4C[C@@H](O)CC[C@]4(C)C3CC[C@]12C (some centres undefined) inactive

Request: CC(C)CCCC(C)C1CCC2C3C[C@@H](O)[C@@]4(O)C[C@@H](O)CC[C@]4(C)C3CC[C@]12C (some centres undefined) active

Request: Cc1cc(=O)oc2cc(O)c(O)cc12 inactive

Request: CC(Cc1cccc(C(F)(F)F)c1)NCCOC(=O)c1ccccc1 (centres undefined) active

Request: CC(C)CCCC(C)[C@H]1CCC2C3CC=C4C[C@@H](O)CC[C@]4(C)C3CC[C@@]21C (some centres undefined) inactive
